Test system: UACC-257
Test: NCI tumour cell line growth inhibition, 48 h
Calls of active or inactive are those of the source. No stated cut-off is given here; in the data, active = GI50 up to about 1.1 µM and inactive = higher.
Outcome codes: true (1) = active, false (0) = inactive

[
  {
    "Compound": "CCCCCCCCCCOc1ccc(/N=N/c2nnc(-c3ccc(OCCCCC)cc3)s2)cc1",
    "Category": "false (0)"
  },
  {
    "Compound": "CC1C(O)=C(O)c2ccccc2N1O (configuration not stated)",
    "Category": "false (0)"
  },
  {
    "Compound": "O=C(NO)c1ccc(OCc2cccc(Cl)c2)cc1",
    "Category": "false (0)"
  },
  {
    "Compound": "CC(C)C(OC(=O)c1cc(NC(=S)c2ccccc2)ccc1Cl)C(C)C",
    "Category": "false (0)"
  },
  {
    "Compound": "O=c1[nH]nc(NNc2ccccc2)c2nnn(C3CCCCC3)c12",
    "Category": "false (0)"
  },
  {
    "Compound": "CCN(CC)CC(C(=O)Nc1c(C)cccc1C)/C(C)=N\\NC(=O)C[N+](C)(C)C (configuration not stated)",
    "Category": "false (0)"
  },
  {
    "Compound": "CC1=C[C@@H](C)C[C@]2(C)CC[C@H](O2)[C@]23CC[C@](C)(C[C@H](O2)[C@@H]2O[C@@](C)(CC2=O)[C@@H](O)[C@H]2CC[C@@]4(CCC[C@@H](O4)[C@H](C)C(=O)O[C@H]4C[C@H]([C@]5(O)OCC[C@H](C)[C@@H]5O)O[C@H]4C=C1)O2)O3",
    "Category": "true (1)"
  },
  {
    "Compound": "CCNC(=O)C#CC(=O)NCC",
    "Category": "false (0)"
  },
  {
    "Compound": "COc1ccc2c(CCNS(=O)(=O)c3ccccc3)c(C(C)=O)[nH]c2c1[N+](=O)[O-]",
    "Category": "false (0)"
  },
  {
    "Compound": "CNC(C)C(O)c1ccc2oc3cc(=O)c4ccccc4c-3nc2c1 (configuration not stated)",
    "Category": "false (0)"
  },
  {
    "Compound": "Cc1cc2c(cc1C)[n+]([O-])c(C(=O)CC(=O)C(=O)Nc1c(C(C)C)cccc1C(C)C)c(C)[n+]2[O-]",
    "Category": "false (0)"
  },
  {
    "Compound": "Brc1cccc(/C=N/C23CC4CC(CC(C4)C2)C3)c1",
    "Category": "false (0)"
  },
  {
    "Compound": "Nc1ncnc2c1ncn2COC/C=C/I",
    "Category": "false (0)"
  },
  {
    "Compound": "COc1cc(CCc2ccc(OCCN(C)C)cc2)cc(OC)c1OC",
    "Category": "false (0)"
  },
  {
    "Compound": "Cn1cnc2nc(Cl)nc(NC(C)(C)C(C)(C)O)c21",
    "Category": "false (0)"
  },
  {
    "Compound": "O=C(Nc1ccn(C2CC(O)C(CO)O2)c(=O)n1)c1ccccc1 (configuration not stated)",
    "Category": "false (0)"
  },
  {
    "Compound": "O=C(O)CCC(=O)N1c2ccccc2CC1c1c[nH]c2ccccc12 (configuration not stated)",
    "Category": "false (0)"
  },
  {
    "Compound": "CCOC(=O)CCC(NC(=O)OCc1ccccc1)C(=O)NC(CCC(=O)OCC)C(=O)NC(CCC(=O)OCC)C(=O)NC(CCC(=O)OCC)C(=O)NC(CCC(=O)OCC)C(=O)NC(CCC(=O)OCC)C(=O)NC(CCC(=O)OCC)C(=O)OCC (configuration not stated)",
    "Category": "false (0)"
  },
  {
    "Compound": "COc1c2c(cc3c1OCO3)C13C=CC(OC)CC1N(CC3)C2.[O-][Cl+3]([O-])([O-])O (configuration not stated)",
    "Category": "false (0)"
  },
  {
    "Compound": "CC(=O)N1CCN(C23OC4(N5CCN(C(C)=O)CC5)C5C6CC(C7C6C4C72)C53)CC1 (configuration not stated)",
    "Category": "false (0)"
  },
  {
    "Compound": "O=c1c2cc([N+](=O)[O-])ccc2n2n1CCCC2",
    "Category": "false (0)"
  },
  {
    "Compound": "c1ccc(CN[C@]23C4C5CC6C7C5C2C7[C@@](NCc2ccccc2)(C64)N3Cc2ccccc2)cc1 (some centres not stated)",
    "Category": "false (0)"
  },
  {
    "Compound": "O=c1c(C(c2ccc3ccccc3c2)c2c(O)oc3cc(O)ccc3c2=O)c(O)oc2cc(O)ccc12",
    "Category": "false (0)"
  },
  {
    "Compound": "CCC(=O)c1ccc2[nH]c3c(C)c4c(O)cc(C)nc4c(C)c3c2c1",
    "Category": "false (0)"
  },
  {
    "Compound": "O=C1Nc2ccccc2N/C1=C\\C(=O)c1ccccc1O",
    "Category": "false (0)"
  },
  {
    "Compound": "COC(=O)CCc1ccc(CCC(=O)OC)cc1",
    "Category": "false (0)"
  },
  {
    "Compound": "O=C(/C=C/c1ccc2c(c1)OCO2)NCCc1ccco1",
    "Category": "false (0)"
  },
  {
    "Compound": "Nn1c(S)nnc1NNC(=O)C(=O)Nc1cc(Cl)c(Cl)cc1Cl",
    "Category": "false (0)"
  },
  {
    "Compound": "CCCCSC1=N/C(=C\\c2ccccc2O)C(Cl)=N1",
    "Category": "false (0)"
  },
  {
    "Compound": "N#C/C(=C\\c1cc(Br)c(O)c(Br)c1)c1cccnc1",
    "Category": "false (0)"
  },
  {
    "Compound": "COc1cc(/C=C/C(=N\\NC(N)=S)c2sc(NNC(C)=O)nc2C)ccc1O",
    "Category": "false (0)"
  },
  {
    "Compound": "O=C1OCCC1(Cc1ccc(Cl)cc1)Cc1ccc(Cl)cc1",
    "Category": "false (0)"
  }
]
